Biological target: His-Tagged hOGA (human O-GlcNAcase) (Homo sapiens (Human), UniProt O60502)
Sequence (O60502 whole entry): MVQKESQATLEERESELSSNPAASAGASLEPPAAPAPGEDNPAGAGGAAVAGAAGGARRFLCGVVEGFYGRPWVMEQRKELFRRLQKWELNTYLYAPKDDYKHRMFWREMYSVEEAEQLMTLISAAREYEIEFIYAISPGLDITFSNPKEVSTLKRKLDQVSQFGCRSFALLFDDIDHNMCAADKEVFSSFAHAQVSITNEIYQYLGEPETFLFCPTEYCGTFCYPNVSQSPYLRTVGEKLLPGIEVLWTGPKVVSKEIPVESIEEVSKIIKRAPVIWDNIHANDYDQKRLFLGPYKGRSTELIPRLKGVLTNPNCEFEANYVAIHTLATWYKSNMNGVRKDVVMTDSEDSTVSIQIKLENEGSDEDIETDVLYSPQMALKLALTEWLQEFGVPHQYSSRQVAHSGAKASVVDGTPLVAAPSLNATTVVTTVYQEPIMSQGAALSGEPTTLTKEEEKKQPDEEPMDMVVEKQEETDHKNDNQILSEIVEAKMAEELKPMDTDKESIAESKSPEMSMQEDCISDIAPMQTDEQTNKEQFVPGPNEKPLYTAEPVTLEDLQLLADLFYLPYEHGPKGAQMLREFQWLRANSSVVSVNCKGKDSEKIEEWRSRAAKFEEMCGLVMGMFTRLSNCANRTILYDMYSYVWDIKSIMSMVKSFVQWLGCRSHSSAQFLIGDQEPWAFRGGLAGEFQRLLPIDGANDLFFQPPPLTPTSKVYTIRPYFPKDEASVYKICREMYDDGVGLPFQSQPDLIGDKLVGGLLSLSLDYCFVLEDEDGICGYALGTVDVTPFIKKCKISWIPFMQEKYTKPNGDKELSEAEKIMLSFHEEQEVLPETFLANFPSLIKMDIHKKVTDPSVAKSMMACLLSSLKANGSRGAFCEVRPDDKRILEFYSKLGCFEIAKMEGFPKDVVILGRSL
Experiment: Human O-GlcNAcase enzyme inhibition assay (Example B01)
Type: biochemical
Settings: OGA IC50 (M), OGA enzyme inhibition assay; activity range classes
READOUT: IC50

                                    compound  readout            result
 0  CCNC(=O)c1cnc(N2CCN([C@@H](C)c3ccc4c(c3)OCCO4)CC2)s1 (single isomer, unassigned)     IC50  5e-08 to 2e-07 M
 1  COc1cc(C(C)N2CCN(c3nnc(NC(C)=O)s3)CC2)ccc1Cl (racemic)     IC50  1e-06 to 1e-05 M
 2  CC(=O)Nc1cnc(N2CCN(C(C)c3ccc4cccnc4c3)CC2)nc1 (racemic)     IC50  2e-07 to 1e-06 M
 3  C[C@@H](c1ccc2c(c1)OCCO2)N1CCN(c2ncc(C(=O)N3CCN(C)CC3)s2)CC1 (single isomer, unassigned) [Example 75]     IC50         < 5e-08 M
 4  CNC(=O)c1cnc(N2CCN([C@@H](C)c3ccc4c(c3)OCO4)CC2)s1 (single isomer, unassigned) [Example 65]     IC50  1e-06 to 1e-05 M
 5  C[C@@H](c1ccc2c(c1)OCCO2)N1CCN(c2ncc(C(=O)N3CCN(C)CC3)s2)CC1 (single isomer, unassigned) [Example 74]     IC50  1e-06 to 1e-05 M
 6  CC(=O)Nc1cnc(N2CCN([C@H](C)c3ccc4c(c3)OCO4)CC2)nc1 (single isomer, unassigned)     IC50  1e-06 to 1e-05 M
 7  CCNC(=O)c1cnc(N2CCN([C@@H](C)c3ccc4c(c3)OCO4)CC2)s1 (single isomer, unassigned) [Example 59]     IC50  1e-06 to 1e-05 M
 8  C[C@@H](c1ccc2c(c1)OCCO2)N1CCN(c2ncc(C(=O)N(C)C)s2)CC1 (single isomer, unassigned) [Example 63]     IC50  1e-06 to 1e-05 M
 9  CNC(=O)c1cnc(N2CCN([C@@H](C)c3ccc4c(c3)OCO4)CC2)s1 (single isomer, unassigned) [Example 66]     IC50         < 5e-08 M
10  Cc1csc(N2CCN([C@H](C)c3ccc4c(c3)OCO4)CC2)n1 (single isomer, unassigned)     IC50  5e-08 to 2e-07 M
11  C[C@H](c1ccc2nccnc2c1)N1CCN(c2ncc(C(F)(F)F)cn2)CC1 (single isomer, unassigned)     IC50  5e-08 to 2e-07 M
12  CCNC(=O)c1cnc(N2CCN([C@@H](C)c3ccc4c(c3)OCO4)CC2)s1 (single isomer, unassigned) [Example 60]     IC50  5e-08 to 2e-07 M
13  C[C@@H](c1ccc2c(c1)OCCO2)N1CCN(c2ncc(C(=O)N(C)C)s2)CC1 (single isomer, unassigned) [Example 64]     IC50         < 5e-08 M
